Every entry's value here was drawn from patent US6653300B2.

Property Measured: melting point

Could you report melting point for every entry in the following list?
1. Cc1cccc(Nc2nc(Nc3cc(C4CC4)[nH]n3)c3ccccc3n2)c1C
2. c1ccc2cc(Oc3nc(Nc4cc(C5CC5)[nH]n4)c4ccccc4n3)ccc2c1
3. O=C(O)c1cccc(Nc2nc(Nc3cc(C4CC4)[nH]n3)c3ccccc3n2)c1
4. Cc1cc(Nc2nc(Nc3cc(C4CC4)[nH]n3)c3ccccc3n2)ccc1Cl

### Response
241 to 242 °C
327 to 328 °C
298 to 302 °C
244 to 246 °C

Batch request: melting point for each of the following compounds.
1. Cc1cc(Nc2nc(Sc3ccc(C(=O)NCCCN(C)C)cc3)nc3ccccc23)n[nH]1
2. Cc1cccc(Nc2nc(Nc3cc(C4CC4)[nH]n3)cc(-c3ccccc3)n2)c1
3. Cc1cc(Nc2cc(N3CCN(C)CC3)nc(SCc3ccc(S(=O)(=O)N4CCOCC4)cc3)n2)n[nH]1

### Response
["210 to 213 °C", "267 to 270 °C", "206 to 207 °C"]

* * *

Heads up, these molecules all have Ki values measured for GSK-3β (AA 1-420) (Homo sapiens, UniProt P49841).

Previously resolved entries follow.
CCCS(=O)(=O)Nc1ccc(Sc2nc(Nc3cc(C)n[nH]3)c3ccccc3n2)cc1 :: 100 to 1000 nM
Cc1cc(Nc2cc(N3CCN(C)CC3)nc(SCc3ccccc3)n2)n[nH]1 :: 1000 to 7000 nM
Cc1cc(Nc2nc(Nc3cccc(O)c3)nc3ccccc23)n[nH]1 :: 100 to 1000 nM

# return Ki for each item in the list
1. O=C(O)Cc1ccc(Nc2nc(Nc3cc(C4CC4)[nH]n3)c3ccccc3n2)cc1
2. Cc1cc(Nc2cc(C)[nH]n2)nc(Nc2ccccc2)n1
3. Cc1cc(Nc2cc(N3CCN(C)CC3)nc(SCc3cccc(Cl)c3)n2)n[nH]1
4. CNC(=O)c1cc(Nc2cc(C)[nH]n2)nc(Sc2ccc(NC(C)=O)cc2)n1
5. COc1cc(CSc2nc(Nc3cc(C)[nH]n3)cc(N3CCCC3)n2)cc(OC)c1
6. Cc1cc(Nc2nc(Sc3ccc(F)cc3F)nc3ccccc23)n[nH]1

### Response
["< 100 nM", "< 100 nM", "100 to 1000 nM", "1000 to 7000 nM", "1000 to 7000 nM", "< 100 nM"]

* * *

System Under Test: GSK-3β (AA 1-420) (Homo sapiens, UniProt P49841)
Sequence (P49841 whole entry, the tested form may be a part): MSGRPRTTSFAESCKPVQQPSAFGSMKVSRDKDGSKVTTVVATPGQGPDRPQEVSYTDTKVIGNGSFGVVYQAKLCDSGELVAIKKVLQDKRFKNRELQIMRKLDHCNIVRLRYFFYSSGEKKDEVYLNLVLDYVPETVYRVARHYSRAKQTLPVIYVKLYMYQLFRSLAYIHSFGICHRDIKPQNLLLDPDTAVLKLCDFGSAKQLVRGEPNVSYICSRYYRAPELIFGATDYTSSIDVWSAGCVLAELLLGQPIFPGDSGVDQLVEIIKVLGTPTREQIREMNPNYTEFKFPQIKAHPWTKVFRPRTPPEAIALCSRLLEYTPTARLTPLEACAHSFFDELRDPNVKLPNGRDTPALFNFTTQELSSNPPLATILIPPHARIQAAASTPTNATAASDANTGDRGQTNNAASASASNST
pKi: −log10 of the molar value.
Property Measured: pKi

A selection of reference data follows.
CCc1cccc(Nc2nc(Nc3cc(C4CC4)[nH]n3)c3ccccc3n2)c1 [IIc-41] :: 6.00 to 7.00
COC(=O)c1cccc(Sc2nc(Nc3cc(C4CC4)[nH]n3)c3ccccc3n2)c1 [IIa-22] :: > 7.00
Cc1nc(Sc2ccc3ccccc3c2)nc(Nc2cc(C3CC3)[nH]n2)c1C [IIIa-4] :: 6.00 to 7.00

Give pKi for each of the items listed below.
1. CCC(=O)Nc1ccc(Sc2nc(COC)cc(Nc3cc(C)[nH]n3)n2)cc1 [IIIa-38]
2. Cc1cc(Nc2nc(Nc3ccc(Br)cc3)nc3ccccc23)n[nH]1 [IIc-67]
3. c1ccc(OCCNc2nc(Nc3cc(C4CC4)[nH]n3)c3ccccc3n2)cc1 [IIc-34]

### Response
5.15 to 6.00
> 7.00
6.00 to 7.00

Provide reported pKi for each item, in the same order as listed.
1. COC(=O)c1cccc(Sc2nc(Nc3cc(C4CC4)[nH]n3)cc(-c3ccccc3)n2)c1 [IIIa-2]
2. Fc1cccc2c(Nc3nc(C4CC4c4ccccc4)nc4ccccc34)n[nH]c12 (stereo not drawn) [IId-17]
3. c1ccc2cc(Sc3nc4c(c(Nc5cc(C6CC6)[nH]n5)n3)CCCC4)ccc2c1 [IIa-29]
4. CNCC(=O)Nc1ccc(Sc2nc(Nc3cc(C)[nH]n3)c3ccccc3n2)cc1 [IIa-77]
5. Cc1cc(Nc2nc(Sc3ccc(NS(C)(=O)=O)cc3)nc3c(O)cccc23)n[nH]1 [IIa-69]
6. c1ccc(Cc2nc(Nc3cc(C4CC4)[nH]n3)c3ccccc3n2)cc1 [IId-3]
7. CCC(=O)Nc1ccc(Sc2nc(Nc3cc(C)[nH]n3)cc(-c3ccccc3)n2)cc1 [IIIa-15]
8. COC(=O)Cc1ccc(Nc2nc(Nc3cc(C)[nH]n3)c3ccccc3n2)cc1C [IIc-64]

### Response
> 7.00
6.00 to 7.00
6.00 to 7.00
5.15 to 6.00
6.00 to 7.00
5.15 to 6.00
5.15 to 6.00
6.00 to 7.00

For each entry beneath this line, provide reported pKi.
1. CC(=O)Nc1ccc(Sc2nc(Nc3cc(C)[nH]n3)c3cccc(O)c3n2)cc1 [IIa-52]
2. Cc1cc(Nc2nc(Sc3ccc(NC(=O)CCCN4CCOCC4)cc3)nc3ccccc23)n[nH]1 [IIa-64]
3. Cc1cc(Nc2nc(Sc3ccc(C(=O)NCCN4CCOCC4)cc3)nc3ccccc23)n[nH]1 [IIa-65]
4. c1ccc2cc(Oc3nc(Nc4cc(C5CC5)[nH]n4)cc(N4CCOCC4)n3)ccc2c1 [IIIb-7]
5. COC(=O)c1cccc(Oc2nc(Nc3cc(C)[nH]n3)c3ccccc3n2)c1 [IIb-9]
6. FC(F)(F)c1ccc(Nc2nc(Nc3n[nH]c4ccccc34)c3ccccc3n2)cc1 [IIc-72]

### Response
1. 5.15 to 6.00
2. 5.15 to 6.00
3. 5.15 to 6.00
4. 6.00 to 7.00
5. 6.00 to 7.00
6. 6.00 to 7.00

Each of the following entries comes with a recorded value; kindly state pKi for each.
1. COCCNc1cc(Nc2cc(C)[nH]n2)nc(SCc2ccc(S(=O)(=O)N3CCOCC3)cc2)n1 [IIIa-36]
2. COc1ccc(Nc2nc(Nc3cc(C4CC4)[nH]n3)c3ccccc3n2)cc1OC [IIc-43]
3. Cc1cc(Nc2cc(N3CCOCC3)nc(SCc3ccc4ccccc4c3)n2)n[nH]1 [IIIa-42]
4. Cc1cc(Nc2cc(-c3ccccc3)nc(Oc3ccc(NC(=O)C(C)C)cc3)n2)n[nH]1 [IIIb-13]
5. COc1cccc(Sc2nc(Nc3cc(C4CC4)[nH]n3)c3ccccc3n2)c1 [IIa-24]
6. Cc1ccc(Nc2nc(Nc3cc(C4CC4)[nH]n3)c3ccccc3n2)cc1C [IIc-33]
7. Cc1cc(Nc2nc(Nc3cccc(-c4ccccc4)c3)nc3ccccc23)n[nH]1 [IIc-63]
8. CC(=O)Nc1ccc(Sc2nc(Nc3cc(C)[nH]n3)cc(-c3ccccc3)n2)cc1 [IIIa-11]

### Response
1: 5.15 to 6.00; 2: 6.00 to 7.00; 3: 6.00 to 7.00; 4: > 7.00; 5: > 7.00; 6: 6.00 to 7.00; 7: 6.00 to 7.00; 8: 6.00 to 7.00

Give pKi for all compounds that follow.
1. Cc1cc(Nc2nc(Sc3ccc(NC(=O)C(C)C)cc3)nc3ccccc23)n[nH]1 [IIa-49]
2. c1ccc2cc(Oc3nc(Nc4cc(C5CC5)[nH]n4)c4ccccc4n3)ccc2c1 [IIb-1]
3. Cc1cccc(Sc2nc(Nc3cc(C)[nH]n3)c3ccccc3n2)c1 [IIa-14]

### Response
["5.15 to 6.00", "> 7.00", "6.00 to 7.00"]

// for each compound below, give its pKi
1. COc1cc(-c2cc(Nc3cc(C)[nH]n3)nc(Nc3ccc(S(N)(=O)=O)cc3)n2)cc(OC)c1OC [IIIc-8]
2. Clc1cccc(Sc2nc(Nc3cc(C4CC4)[nH]n3)c3ccccc3n2)c1Cl [IIa-30]
3. CCc1cc(Nc2cc(C)[nH]n2)nc(Nc2ccc(Cl)cc2)n1 [IIIc-12]
4. Cc1cc(Nc2nc(Sc3cccc(Br)c3)nc3ccccc23)n[nH]1 [IIa-47]
5. CC(=O)Nc1ccc(Sc2nc(Nc3cc(C)n[nH]3)cc(-c3ccc(OCCCN(C)C)cc3)n2)cc1 [IIIa-43]

### Response
1. 6.00 to 7.00
2. > 7.00
3. > 7.00
4. > 7.00
5. 5.15 to 6.00

* * *

Property Measured: melting point

c1ccc2cc(Sc3nc4c(c(Nc5cc(C6CC6)[nH]n5)n3)CCCC4)ccc2c1 :: 244 °C
c1ccc(Sc2nc(Nc3cc(C4CC4)[nH]n3)c3ccccc3n2)cc1 :: 233 to 236 °C
COCc1cc(Nc2cc(C)[nH]n2)nc(Sc2ccc(C(=O)OC)cc2)n1 :: 204 to 205 °C
CCCS(=O)(=O)Nc1ccc(Sc2nc(Nc3cc(C)n[nH]3)cc(-c3ccccc3)n2)cc1 :: 232 to 235 °C

Quick request: melting point for each listed item, please.
1. Cc1cc(Nc2nc(Sc3ccc(C(=O)NCCN(C)C)cc3)nc3ccccc23)n[nH]1
2. c1ccc(-c2cc(Nc3cc(C4CC4)[nH]n3)nc(NCc3cccnc3)n2)cc1
3. Cc1cc(Nc2nc(Nc3ccc(C)c(C)c3)nc3ccccc23)n[nH]1

### Response
192 to 193 °C
191 to 193 °C
249 to 251 °C

Okay, here is my list. What is melting point for each of these?
1. CC(=O)Nc1ccc(Sc2nc(Nc3cc(C)[nH]n3)c3cccc(OCCCN(C)C)c3n2)cc1
2. CC(=O)Nc1ccc(Sc2nc(Nc3cc(C)[nH]n3)c3ccc(N)cc3n2)cc1

### Response
170 to 172 °C
264 to 265 °C
